Biological target: CDK7/Cyclin H/MNAT1 (Homo sapiens)
Construct: purchased Invitrogen PR6749B
Sequence (P50613 whole entry): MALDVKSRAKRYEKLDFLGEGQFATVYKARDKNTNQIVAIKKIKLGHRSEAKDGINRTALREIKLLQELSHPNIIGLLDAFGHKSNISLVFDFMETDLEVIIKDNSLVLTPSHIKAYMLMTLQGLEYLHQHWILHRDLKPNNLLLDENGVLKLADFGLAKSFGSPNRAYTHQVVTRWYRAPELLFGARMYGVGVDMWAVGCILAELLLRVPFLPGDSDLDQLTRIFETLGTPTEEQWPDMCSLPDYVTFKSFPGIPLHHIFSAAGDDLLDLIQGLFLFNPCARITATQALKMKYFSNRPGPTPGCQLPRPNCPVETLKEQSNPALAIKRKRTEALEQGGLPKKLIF
Sequence (P51946 whole entry partner): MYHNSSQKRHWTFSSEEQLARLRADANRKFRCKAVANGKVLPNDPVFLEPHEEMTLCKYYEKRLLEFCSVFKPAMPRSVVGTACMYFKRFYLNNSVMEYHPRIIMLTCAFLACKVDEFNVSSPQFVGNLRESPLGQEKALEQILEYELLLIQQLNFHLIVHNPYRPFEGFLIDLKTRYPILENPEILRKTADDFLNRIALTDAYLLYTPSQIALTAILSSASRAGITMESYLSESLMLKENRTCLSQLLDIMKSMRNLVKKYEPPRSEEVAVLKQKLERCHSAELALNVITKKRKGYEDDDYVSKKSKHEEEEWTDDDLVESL
Sequence (P51948 whole entry partner): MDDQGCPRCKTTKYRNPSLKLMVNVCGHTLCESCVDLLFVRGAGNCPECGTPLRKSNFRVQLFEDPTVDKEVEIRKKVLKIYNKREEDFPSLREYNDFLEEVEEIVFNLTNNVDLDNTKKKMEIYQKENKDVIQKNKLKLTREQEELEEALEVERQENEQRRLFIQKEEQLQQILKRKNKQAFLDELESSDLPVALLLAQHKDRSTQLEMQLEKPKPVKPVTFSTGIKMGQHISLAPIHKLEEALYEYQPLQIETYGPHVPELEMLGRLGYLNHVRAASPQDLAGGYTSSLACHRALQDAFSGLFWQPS
Experiment: Enzymatic assay for CDK7 (FRET based LANCE Ultra kinase assay)
Type: biochemical
Settings: read-out: CDK7 enzymatic activity (IC50 activity range)
measured endpoint: IC50

These recorded examples may help you get a feel for the data.
>  <compound>
CC(C)c1cnn2c(NCc3ccccc3-c3ccc4ccccc4n3)nc(N[C@H]3CC[C@H](O)CC3)nc12 [Compound 266]

>  <target or system>
CDK7/Cyclin H/MNAT1 (Homo sapiens)

>  <IC50>
< 100 nM

$$$$
>  <compound>
CC(C)c1cnn2c(NCc3c(Cl)cccc3Cl)nc(N3CCC(N)CC3)nc12 [Compound 257]

>  <target or system>
CDK7/Cyclin H/MNAT1 (Homo sapiens)

>  <IC50>
< 100 nM

$$$$
>  <compound>
CC(C)c1cnn2c(NCc3ccccc3-c3ccc4ccccc4n3)nc(NCC[C@@H](O)CN)nc12 [Compound 251]

>  <target or system>
CDK7/Cyclin H/MNAT1 (Homo sapiens)

>  <IC50>
< 100 nM

$$$$
>  <compound>
CC(C)c1cnn2c(NCc3ccccc3-c3nccc4ccccc34)nc(NC[C@H]3CCNC[C@@H]3O)nc12 [Compound 279]

>  <target or system>
CDK7/Cyclin H/MNAT1 (Homo sapiens)

>  <IC50>
100 to 1000 nM

$$$$
>  <compound>
CC(C)c1cnn2c(NCc3ccccc3-c3ccc4ccccc4n3)nc(NC3CCC(O)CC3)nc12 (stereo not shown) [Compound 270]

>  <target or system>
CDK7/Cyclin H/MNAT1 (Homo sapiens)

>  <IC50>
< 100 nM

$$$$
>  <compound>
CC(C)c1cnn2c(NCc3ccccc3-c3ccc4ccccc4n3)nc(N3CCCC[C@H]3CO)nc12 [Compound 263]

>  <target or system>
CDK7/Cyclin H/MNAT1 (Homo sapiens)

>  <IC50>
100 to 1000 nM

$$$$

Below: the item to evaluate.
**Q:** GET /values?readout=IC50&item= CC(C)c1cnn2c(NCc3ccccc3-c3ccc4ccccc4n3)nc(N3CCNC[C@H]3CO)nc12 [Compound 271]
**A:** < 100 nM

====

Molecular target: CDK6/CycD2 (Homo sapiens)
Sequence (Q00534 whole entry): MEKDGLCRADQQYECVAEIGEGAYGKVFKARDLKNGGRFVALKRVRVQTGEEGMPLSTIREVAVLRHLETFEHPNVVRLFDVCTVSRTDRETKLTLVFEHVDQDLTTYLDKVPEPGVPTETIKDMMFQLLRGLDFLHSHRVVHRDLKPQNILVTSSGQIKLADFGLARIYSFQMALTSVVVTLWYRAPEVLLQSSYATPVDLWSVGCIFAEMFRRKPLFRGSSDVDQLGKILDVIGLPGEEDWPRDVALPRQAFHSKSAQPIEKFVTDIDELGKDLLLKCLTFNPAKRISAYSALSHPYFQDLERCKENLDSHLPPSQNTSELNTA
Sequence (P30279 whole entry partner): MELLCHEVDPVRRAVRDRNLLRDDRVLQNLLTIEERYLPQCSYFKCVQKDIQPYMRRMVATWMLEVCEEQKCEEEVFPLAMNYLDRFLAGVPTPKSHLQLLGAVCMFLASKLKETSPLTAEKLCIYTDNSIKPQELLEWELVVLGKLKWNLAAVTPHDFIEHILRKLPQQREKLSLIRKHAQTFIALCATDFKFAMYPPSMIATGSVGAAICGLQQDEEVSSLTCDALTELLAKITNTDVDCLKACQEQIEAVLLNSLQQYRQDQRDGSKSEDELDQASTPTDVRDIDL
Assay: In vitro IC50 profile for CDKs family kinase (33PanQinase radiometric assay)
Conditions: CDK7 selectivity profile in CDKs family
pIC50: −log10 of the molar value.
measured endpoint: pIC50

**Q:** GET /values?readout=pIC50&item= CC(C)c1cnn2c(NCc3c(Cl)cccc3-n3ccc(C(C)(C)O)n3)nc(N3CCC(N)CC3)nc12 [Compound 210]
**A:** < 5.00

====

Target: CDK2/Cyclin A (Homo sapiens, UniProt P24941)
Construct: purchased Invitrogen PV6290
Test: Enzymatic assay for CDK2 (FRET based LANCE Ultra kinase assay)
Assay type: biochemical
Settings: read-out: CDK2 enzymatic activity (IC50 range)
pIC50: −log10 of the molar value.
measured endpoint: pIC50

These recorded examples may help you get a feel for the data.
>  <molecule>
CC(C)c1cnn2c(NCc3ccccc3-n3cc(C(=O)NC4CCOCC4)cn3)nc(N3CCC(N)CC3)nc12 [Compound 155]

>  <pIC50>
6.00 to 7.00

$$$$
>  <molecule>
CC(C)c1cnn2c(NCc3ccccc3Oc3ccc4ccccc4n3)nc(N3CCC(N)CC3)nc12 [Compound 74]

>  <pIC50>
< 6.00

$$$$
>  <molecule>
CC(C)c1cnn2c(NCc3ccccc3-n3cc4c(n3)CCCC4)nc(N3CCC(N)CC3)nc12 [Compound 109]

>  <pIC50>
6.00 to 7.00

$$$$
>  <molecule>
Cc1cccc(-n2ccc(C(C)(C)O)n2)c1CNc1nc(N2CCC(N)CC2)nc2c(C(C)C)cnn12 [Compound 230]

>  <pIC50>
< 6.00

$$$$

**Q:** GET /values?readout=pIC50&item= CC(C)c1cnn2c(NCc3ccccc3-c3ccc4ccccc4n3)nc(NCC(O)CCN)nc12 (racemic) [Compound 240]
**A:** < 6.00

**Q:** GET /values?readout=pIC50&item= Cc1cccc(-c2cc(CO)nn2C)c1CNc1nc(N2CCC(N)CC2)nc2c(C(C)C)cnn12 [Compound 214]
**A:** < 6.00

**Q:** GET /values?readout=pIC50&item= CC(C)c1cnn2c(NCc3ccccc3N(C)c3ccccc3)nc(N3CCC(N)CC3)nc12 [Compound 63]
**A:** 6.00 to 7.00
